Molecular target: human F508del-CFTR (Homo sapiens, UniProt P13569, DEL508-508)
Sequence (P13569 with tags, fused parts or gaps DEL508-508): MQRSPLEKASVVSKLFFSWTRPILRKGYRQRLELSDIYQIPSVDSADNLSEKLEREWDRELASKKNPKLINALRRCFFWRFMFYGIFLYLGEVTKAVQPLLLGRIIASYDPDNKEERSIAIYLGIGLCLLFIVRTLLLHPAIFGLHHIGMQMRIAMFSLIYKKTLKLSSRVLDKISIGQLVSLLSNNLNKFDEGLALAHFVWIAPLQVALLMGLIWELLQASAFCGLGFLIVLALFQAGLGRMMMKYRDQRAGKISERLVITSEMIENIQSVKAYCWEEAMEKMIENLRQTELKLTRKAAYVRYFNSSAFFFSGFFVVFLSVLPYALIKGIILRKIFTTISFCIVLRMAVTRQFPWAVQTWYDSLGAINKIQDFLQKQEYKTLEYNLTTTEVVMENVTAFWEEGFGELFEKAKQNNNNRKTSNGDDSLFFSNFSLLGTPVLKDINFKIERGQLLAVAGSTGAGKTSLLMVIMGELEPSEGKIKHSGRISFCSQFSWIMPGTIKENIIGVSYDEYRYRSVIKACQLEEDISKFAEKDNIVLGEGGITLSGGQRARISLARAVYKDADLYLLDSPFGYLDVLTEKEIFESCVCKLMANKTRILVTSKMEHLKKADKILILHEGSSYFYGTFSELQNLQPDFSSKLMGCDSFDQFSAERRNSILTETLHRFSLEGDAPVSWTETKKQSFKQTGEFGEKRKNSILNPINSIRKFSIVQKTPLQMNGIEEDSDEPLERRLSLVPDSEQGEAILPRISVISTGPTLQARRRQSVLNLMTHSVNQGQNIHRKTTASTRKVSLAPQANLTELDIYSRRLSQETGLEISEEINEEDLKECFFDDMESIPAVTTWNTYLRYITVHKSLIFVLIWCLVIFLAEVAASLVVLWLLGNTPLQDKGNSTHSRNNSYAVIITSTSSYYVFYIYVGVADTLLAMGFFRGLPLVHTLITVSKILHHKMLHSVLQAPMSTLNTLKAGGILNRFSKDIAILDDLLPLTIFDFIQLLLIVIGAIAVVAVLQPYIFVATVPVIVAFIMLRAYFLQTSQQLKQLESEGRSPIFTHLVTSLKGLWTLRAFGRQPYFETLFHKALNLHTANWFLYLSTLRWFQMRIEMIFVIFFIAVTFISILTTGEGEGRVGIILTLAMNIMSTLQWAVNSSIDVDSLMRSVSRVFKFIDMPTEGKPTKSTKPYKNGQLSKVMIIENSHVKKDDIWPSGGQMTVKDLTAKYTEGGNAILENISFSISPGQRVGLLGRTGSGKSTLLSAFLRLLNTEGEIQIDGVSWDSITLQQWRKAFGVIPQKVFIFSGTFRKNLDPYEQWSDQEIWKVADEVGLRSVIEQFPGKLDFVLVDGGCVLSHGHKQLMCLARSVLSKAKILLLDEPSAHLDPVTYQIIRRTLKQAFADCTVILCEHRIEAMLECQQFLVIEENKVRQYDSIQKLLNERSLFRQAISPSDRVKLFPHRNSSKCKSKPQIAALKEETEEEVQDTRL
Test: F508del-CFTR cell surface expression (corrector activity), DiscoveRx ß-galactosidase complementation chemiluminescence assay in recombinant U2OS cell line;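 further: U2OS cells co-expressing ProLink-tagged F508del-CFTR and a membrane-anchored enzyme acceptor, where more surface CFTR restores β-galactosidase activity measured by chemiluminescence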
Conditions: EC50, F508del-CFTR cell surface expression, U2OS cell line, 16h compound incubation; geomean values
pEC50: −log10 of the molar value.
Parameter: pEC50. Scope: all listed entries.
MEASURE NAME: pEC50

INSERT INTO assay_data (smiles_repr, value_measured) VALUES
  ('CC(C)C[C@H]1C(=O)N(C)C2(CC2)C(=O)N[C@H](Cc2ccccc2)COc2cnc3ccccc3c2C(=O)N[C@H](C(=O)NCCc2c(F)cccc2F)CC(=O)N1C', 6.32),
  ('COc1cccc(CCNC(=O)[C@@H]2CC(=O)N(C)[C@@H](CC(C)C)C(=O)N3CCN(C(C)C)C[C@@H]3C(=O)N[C@H](Cc3ccccc3)COc3cnc4ccccc4c3C(=O)N2)c1', 6.99),
  ('CN1C(=O)C[C@@H](C(=O)NCCc2ccc3c(c2)OCO3)NC(=O)c2c(ccc3ccccc23)OC[C@@H](Cc2ccccc2)NC(=O)CN(CC[C@@H]2CCCCO2)C(=O)[C@@H]1CC1CCC1', 6.74);
